// data source = patent US8552037B2

// values below are reported melting point

Example results:
CC(=O)NCCC1CCc2ccc3nc(C4CC4)oc3c21 (stereo not drawn)
92 to 95 °C
CC(=O)NCCC1CCc2ccc3nc(CO)oc3c21 (stereo not drawn)
132 to 134 °C
CCc1nc2ccc3c(c2o1)C(CCNC(C)=O)CC3 (stereo not drawn)
76 to 78 °C
COc1nc2ccc3c(c2o1)C(CCNC(C)=O)CC3 (stereo not drawn)
126 to 128 °C
CC(=O)NCCC1=CCc2ccc3nc(C)oc3c21
154 to 156 °C

*Q* Quick one: give measured melting point for CC(=O)NCCC1CCc2ccc3nc(CCCc4ccccc4)oc3c21 (stereo not drawn)
*A* 95 to 97 °C

*Q* Quick one: give measured melting point for CC(=O)NCC=C1CCc2ccc3nc(C)oc3c21
*A* 188 to 190 °C

*Q* Quick one: give measured melting point for CC(=O)NCC=C1CCc2ccc3nc(CCCCc4ccccc4)oc3c21
*A* 113 to 115 °C

*Q* Quick one: give measured melting point for Cc1nc2ccc3c(c2o1)C(CCNC(=O)c1ccccc1)CC3 (stereo not drawn)
*A* 73 to 76 °C
